- SUBJECT_OF_TEST: Active Human ERK2 (hERK2) (Homo sapiens (Human))
- EXPERIMENTAL_DETAILS: Active Human ERK2 (hERK2) Activity Assay (IMAP-FP)
- Format: biochemical
- EXPERIMENTAL_PARAMETERS: phosphorylated active hERK2, 30 μM ATP; average; read-out: ERK 2 Human average IC50
READOUT_NAME: log10 IC50 (log10 of the value in nM)
Parameter value (number): base-10 log of IC50 in nM.

// known answers, use as guide
Cc1cc(-c2n[nH]c3cc(NC(=O)NC(CO)c4cc(F)cc(F)c4)ncc23)ccn1 (centres unmarked) | -0.22
Cc1cc(-c2n[nH]c3cc(NC(=O)N[C@@H]4CN(C)C[C@H]4c4ccccc4)ncc23)ccn1 [Example 181] | -0.66
Cc1cc(-c2n[nH]c3cc(NC(=O)NCc4ncn[nH]4)ncc23)ccn1 | 0.73

// sample Cc1nocc1-c1n[nH]c2cc(NC(=O)N[C@H](C)c3ccc(F)cc3)ncc12 , its log10 IC50 was 1.94

// sample Cc1cc(-c2n[nH]c3cc(NC(=O)NCc4ncon4)ncc23)ccn1 , its log10 IC50 was 0.75

// sample O=C(NCC1CCC1)Nc1cc2[nH]nc(-c3ccc(F)cc3)c2cn1 , its log10 IC50 was 0.46

// sample Cc1cc(-c2n[nH]c3cc(NC(=O)N[C@H]4CN(C)C[C@@H]4c4ccc(F)cc4)ncc23)ccn1 , its log10 IC50 was -0.14

// sample C[C@@H](NC(=O)Nc1cc2[nH]nc(C(=O)NCC3CCCC(O)C3)c2cn1)c1ccccc1 (some centres unmarked) , its log10 IC50 was 0.51

* * *

This listing pairs compounds with measured log10 of IC50.
- SUBJECT_OF_TEST: Active Human ERK2 (hERK2) (Homo sapiens (Human), UniProt P28482)
- Sequence (P28482 whole entry): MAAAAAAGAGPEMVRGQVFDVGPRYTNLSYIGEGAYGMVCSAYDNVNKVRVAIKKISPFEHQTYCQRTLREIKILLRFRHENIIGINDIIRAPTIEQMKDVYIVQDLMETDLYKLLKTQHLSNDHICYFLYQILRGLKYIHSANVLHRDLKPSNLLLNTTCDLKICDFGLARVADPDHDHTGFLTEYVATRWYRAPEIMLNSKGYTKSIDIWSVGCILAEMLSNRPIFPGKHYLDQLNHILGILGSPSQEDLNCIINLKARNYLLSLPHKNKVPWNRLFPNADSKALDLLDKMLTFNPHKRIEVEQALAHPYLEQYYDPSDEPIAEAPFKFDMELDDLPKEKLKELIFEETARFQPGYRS
- EXPERIMENTAL_DETAILS: Active Human ERK2 (hERK2) Activity Assay (IMAP-FP)
- Assay type: biochemical
- EXPERIMENTAL_PARAMETERS: phosphorylated active hERK2, 30 μM ATP; average; read-out: ERK 2 Human average IC50
- Description: Assays Active Human ERK2 (hERK2) Activity Assay: Activated ERK2 activity was determined in an IMAP-FP assay (Molecular Devices). […] The final reaction in each well of 25 μL consists of 0.5 nM hERK2, 900 nM unlabeled peptide, 80 nM labeled-peptide, and 30 μM ATP. […] Plates were read on EnVision reader after 60 minutes binding equilibration using Fluorescence Polarization protocol (Perkin Elmer).
Parameter value (number): base-10 log of IC50 in nM.

// known answers, use as guide
Cc1cc(-c2n[nH]c3cc(NC(=O)NCC4CNC(c5ccccc5)C4)ncc23)ccn1 (centres unmarked) [Example 409] | 0.76
C[C@@H](NC(=O)Nc1cc2[nH]nc(C3CC3(F)F)c2cn1)c1ccccc1 (some centres unmarked) [Example 164] | 0.89
Cc1cc(-c2n[nH]c3cc(NC(=O)NCCOc4ccccc4)ncc23)ccn1 [Example 453] | 0.21
Cc1cc(-c2n[nH]c3cc(NC(=O)N[C@@H](C)c4ccccn4)ncc23)ccn1 [Example 345] | 0.73
COC[C@@H](NC(=O)Nc1cc2[nH]nc(-c3cc(C)on3)c2cn1)c1ccccc1 [Example 683] | 0.64
Cc1cc(-c2n[nH]c3cc(NC(=O)NCC(c4ccccn4)N4CCOCC4)ncc23)ccn1 (centres unmarked) [Example 384] | 1.39

// sample C[C@@H](NC(=O)Nc1cc2[nH]nc(-c3ccc(C#N)cc3)c2cn1)c1ccccc1 [Example 66] , its log10 of IC50 was 0.03

// sample COC[C@@H](NC(=O)Nc1cc2[nH]nc(-c3ccc(F)cc3)c2cn1)c1ccccn1 [Example 500] , its log10 of IC50 was -0.11

Where do the numbers come from? From patent US9023865B2.
